Tested on: MDA-MB-231 cells (breast cancer cells)
Assay summary: Cancer cell proliferation assay, MDA-MB-231
Format: cell-based
Stated conditions: Homo sapiens, MDA-MB-231, 72 h; three days incubation, absorbance 570 nm; read-out: IC50 (μM) MDA-MB-231
Experimental: BxPC-3 cells (pancreatic cancer) and MDA-MB-231 cells (breast cancer cells) were harvested from exponential phase cultures and seeded in 96-well plates at a cell density of 2×10^4 per well. After overnight attachment, compounds including positive controls were applied to cells at five concentrations and incubated for three days. […] Absorbance (A) at a wavelength of 570 nm was quantified. […]
Recorded endpoint: IC50

O=C(/C=C\n1cnc(-c2cc(C(F)(F)F)cc(C(F)(F)F)c2)n1)N1CCC(=O)N1Cc1ccccc1
0.965 µM

Prompt: // returns reported IC50 for input CC1CCN(NC(=O)/C=C\n2cnc(-c3cc(C(F)(F)F)cc(C(F)(F)F)c3)n2)C1=O (stereo not drawn)
Completion: 0.504 µM

Prompt: Can you look up the measured IC50 of CN1CCC2(CC1)CC(=O)N(NC(=O)/C=C\n1cnc(-c3cc(C(F)(F)F)cc(C(F)(F)F)c3)n1)C2 for me?
Completion: 0.407 µM

Prompt: State the recorded IC50 for this entry: O=C(/C=C\n1cnc(-c2cc(C(F)(F)F)cc(C(F)(F)F)c2)n1)NN1CC(OCC(F)(F)F)=CC1=O
Completion: 0.214 µM

Prompt: For the molecule shown here, O=C(/C=C\n1cnc(-c2cc(C(F)(F)F)cc(C(F)(F)F)c2)n1)N1CCCN1c1cnccn1 , give the reported IC50.
Completion: 0.675 µM

Prompt: For the molecule CCOC1=CC(=O)N(NC(=O)/C=C\n2cnc(-c3cc(C(F)(F)F)cc(C(F)(F)F)c3)n2)C1 , what IC50 is on record?
Completion: 0.266 µM

Prompt: Returns the measured IC50 for the input molecule. Input: O=C(/C=C\n1cnc(-c2cc(C(F)(F)F)cc(C(F)(F)F)c2)n1)NN1CCCC1=O
Completion: 0.024 µM

Prompt: # get_value(readout='IC50', item= O=C(/C=C\n1cnc(-c2cc(C(F)(F)F)cc(C(F)(F)F)c2)n1)NN1C(=O)[C@@H]2CC[C@H]1C2 )
Completion: 0.165 µM

Prompt: Record request: IC50 value, item O=C(/C=C\n1cnc(-c2cc(C(F)(F)F)cc(C(F)(F)F)c2)n1)NN1CC2CCCCC2C1=O (stereo not drawn)
Completion: 0.24 µM

* * *

The reader will find reported Tmax values listed item by item below.
Assay summary: In vivo pharmacokinetic analysis
Stated conditions: ICR, mouse; mice, 5 mg/kg, oral gavage in 0.5% CMC, plasma
Procedure: A group of 9 ICR mice received 5 mg/kg of compound in 0.5% CMC by oral gavage. Blood was taken before treatment and at 5 min, 30 min, 1, 2, 4, 8, 12 and 24 h after treatment. 80 μL of whole blood was sampled (n=3 at each time point) via retro-orbital bleeds or cardiac puncture. […] Plasma concentration of (compounds was quantified by a method based on liquid chromatography coupled to tandem mass-spectrometric detections (LC/MS/MS). Noncompartmental pharmacokinetics parameters were calculated.
Please respond with the number in min and leave the unit unwritten.

O=C(/C=C\n1cnc(-c2cc(C(F)(F)F)cc(C(F)(F)F)c2)n1)NNc1cnccn1 [KPT-330, Selinexor, reference compound]
30
O=C(/C=C\n1cnc(-c2cc(C(F)(F)F)cc(C(F)(F)F)c2)n1)NN1CCCCC1=O
60
COC1=CC(=O)N(NC(=O)/C=C\n2cnc(-c3cc(C(F)(F)F)cc(C(F)(F)F)c3)n2)CC1
30

Prompt: Quick one: Tmax for O=C(/C=C\n1cnc(-c2cc(C(F)(F)F)cc(C(F)(F)F)c2)n1)NN1CCC2(CC2)C1=O ?
Completion: 30

* * *

Assay summary: In vivo pharmacokinetic analysis
Stated conditions: ICR, mouse; mice, 5 mg/kg, oral gavage in 0.5% CMC, plasma
Recorded endpoint: AUC(0-t)
Please provide the amount together with its unit, number first.

Prompt: Value lookup for AUC(0-t); key = O=C(/C=C\n1cnc(-c2cc(C(F)(F)F)cc(C(F)(F)F)c2)n1)NN1CCCC1=O
Completion: 2660 ng·h/mL

Prompt: Query: AUC(0-t); subject: COC1=CC(=O)N(NC(=O)/C=C\n2cnc(-c3cc(C(F)(F)F)cc(C(F)(F)F)c3)n2)C1
Completion: 3410 ng·h/mL

Prompt: Give its AUC(0-t) value. Item: O=C(/C=C\n1cnc(-c2cc(C(F)(F)F)cc(C(F)(F)F)c2)n1)NN1CCC2(CC2)C1=O
Completion: 3100 ng·h/mL

Prompt: Using the record for O=C(/C=C\n1cnc(-c2cc(C(F)(F)F)cc(C(F)(F)F)c2)n1)NNc1cnccn1 [KPT-330, Selinexor, reference compound] , report its AUC(0-t).
Completion: 2470 ng·h/mL

Prompt: // lookup AUC(0-t) for O=C(/C=C\n1cnc(-c2cc(C(F)(F)F)cc(C(F)(F)F)c2)n1)NN1CCCCC1=O
Completion: 5810 ng·h/mL

Prompt: Entry COC1=CC(=O)N(NC(=O)/C=C\n2cnc(-c3cc(C(F)(F)F)cc(C(F)(F)F)c3)n2)CC1 has what AUC(0-t)?
Completion: 4080 ng·h/mL

Prompt: Form field: reported AUC(0-t) of O=C(/C=C\n1cnc(-c2cc(C(F)(F)F)cc(C(F)(F)F)c2)n1)NN1C(=O)[C@@H]2CC[C@H]1C2
Completion: 5770 ng·h/mL

Prompt: Dear colleague, I am looking for the recorded AUC(0-t) of the following compound: O=C(/C=C\n1cnc(-c2cc(C(F)(F)F)cc(C(F)(F)F)c2)n1)NN1CCOCC1=O
Completion: 4390 ng·h/mL

Prompt: Which AUC(0-t) value belongs to CC1=C(C)C(=O)N(NC(=O)/C=C\n2cnc(-c3cc(C(F)(F)F)cc(C(F)(F)F)c3)n2)C1 ?
Completion: 3690 ng·h/mL

* * *

Recorded Tmax values for a group of compounds are listed next.
Assay summary: In vivo pharmacokinetic analysis
Stated conditions: ICR, mouse; mice, 5 mg/kg, oral gavage in 0.5% CMC, plasma
# value in h; strip the unit string

O=C(/C=C\n1cnc(-c2cc(C(F)(F)F)cc(C(F)(F)F)c2)n1)NN1C(=O)[C@@H]2CC[C@H]1C2
1

Prompt: Bench note: what Tmax did COC1=CC(=O)N(NC(=O)/C=C\n2cnc(-c3cc(C(F)(F)F)cc(C(F)(F)F)c3)n2)C1 show?
Completion: 1

Prompt: // Tmax lookup, key: O=C(/C=C\n1cnc(-c2cc(C(F)(F)F)cc(C(F)(F)F)c2)n1)NN1CCOCC1=O
Completion: 0.5

Prompt: May I ask what Tmax has been recorded for O=C(/C=C\n1cnc(-c2cc(C(F)(F)F)cc(C(F)(F)F)c2)n1)NN1CCCC1=O ?
Completion: 0.5

Prompt: Data request, read-out Tmax, for CC1=C(C)C(=O)N(NC(=O)/C=C\n2cnc(-c3cc(C(F)(F)F)cc(C(F)(F)F)c3)n2)C1
Completion: 1

* * *

Reported IC50 values for the following compounds.
Study system: CRM1 (Homo sapiens, UniProt O14980)
Construct: The nuclear localization of Rev protein depends on CRM1; endogenous in cells
Sequence (O14980 whole entry): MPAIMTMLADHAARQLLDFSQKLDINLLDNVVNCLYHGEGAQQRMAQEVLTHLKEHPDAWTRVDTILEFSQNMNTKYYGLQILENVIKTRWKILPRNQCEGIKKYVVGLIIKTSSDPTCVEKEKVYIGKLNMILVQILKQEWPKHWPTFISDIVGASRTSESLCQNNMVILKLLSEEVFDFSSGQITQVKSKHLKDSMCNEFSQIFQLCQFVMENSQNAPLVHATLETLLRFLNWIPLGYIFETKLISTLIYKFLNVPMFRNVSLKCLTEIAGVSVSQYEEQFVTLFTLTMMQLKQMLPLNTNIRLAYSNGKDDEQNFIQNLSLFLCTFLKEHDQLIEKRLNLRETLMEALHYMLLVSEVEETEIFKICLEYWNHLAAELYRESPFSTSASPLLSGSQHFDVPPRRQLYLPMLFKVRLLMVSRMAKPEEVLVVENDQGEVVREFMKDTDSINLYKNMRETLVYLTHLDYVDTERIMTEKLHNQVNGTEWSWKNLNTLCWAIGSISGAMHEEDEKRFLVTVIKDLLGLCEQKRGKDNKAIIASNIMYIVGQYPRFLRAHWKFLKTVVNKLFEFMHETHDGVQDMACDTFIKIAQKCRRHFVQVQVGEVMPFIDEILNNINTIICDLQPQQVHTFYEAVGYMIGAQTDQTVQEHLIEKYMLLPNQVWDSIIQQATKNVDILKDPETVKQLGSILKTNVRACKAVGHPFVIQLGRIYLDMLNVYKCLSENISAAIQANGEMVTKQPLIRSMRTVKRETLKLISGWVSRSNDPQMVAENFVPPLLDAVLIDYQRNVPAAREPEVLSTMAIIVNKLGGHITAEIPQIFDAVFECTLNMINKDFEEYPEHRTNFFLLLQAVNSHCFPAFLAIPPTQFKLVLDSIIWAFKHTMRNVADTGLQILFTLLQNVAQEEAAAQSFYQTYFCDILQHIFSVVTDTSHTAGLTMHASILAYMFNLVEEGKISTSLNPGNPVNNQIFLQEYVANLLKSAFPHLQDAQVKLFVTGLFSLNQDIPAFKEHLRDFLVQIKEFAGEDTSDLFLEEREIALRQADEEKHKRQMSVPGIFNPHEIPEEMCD
Assay summary: Rev-GFP nuclear export assay
Stated conditions: U2OS cells expressing Rev-GFP, 1 hour incubation, nuclear retention of Rev-GFP

Some compounds with known IC50 results, for comparison:
O=C(/C=C\n1cnc(-c2cc(C(F)(F)F)cc(C(F)(F)F)c2)n1)NN1CC2CCCCC2C1=O (stereo not drawn)
1000 to 10000 nM
CC1=C(C)C(=O)N(NC(=O)/C=C\n2cnc(-c3cc(C(F)(F)F)cc(C(F)(F)F)c3)n2)C1
< 1000 nM
CCC1=C(C)CN(NC(=O)/C=C\n2cnc(-c3cc(C(F)(F)F)cc(C(F)(F)F)c3)n2)C1=O
< 1000 nM
O=C(/C=C\n1cnc(-c2cc(C(F)(F)F)cc(C(F)(F)F)c2)n1)NN1C(=O)[C@@H]2CC[C@H]1C2
< 1000 nM
O=C(/C=C\n1cnc(-c2cc(C(F)(F)F)cc(C(F)(F)F)c2)n1)N1CCCN1C(=O)C1CC1
< 1000 nM

Prompt: May I ask what IC50 has been recorded for O=C(/C=C\n1cnc(-c2cc(C(F)(F)F)cc(C(F)(F)F)c2)n1)NN1CCOCC1=O ?
Completion: < 1000 nM

Prompt: Please look up its IC50: CC1=CC(=O)N(NC(=O)/C=C\n2cnc(-c3cc(C(F)(F)F)cc(C(F)(F)F)c3)n2)CC1
Completion: < 1000 nM

Prompt: GET /values?readout=IC50&item= O=C(/C=C\n1cnc(-c2cc(C(F)(F)F)cc(C(F)(F)F)c2)n1)NN1CC(OCC(F)(F)F)=CC1=O
Completion: < 1000 nM

Prompt: Could you share which IC50 value was measured for O=C(/C=C\n1cnc(-c2cc(C(F)(F)F)cc(C(F)(F)F)c2)n1)NN1CCCC1=O ?
Completion: < 1000 nM

Prompt: Can you share its IC50? I mean this compound: [2H]C([2H])([2H])OC1=CC(=O)N(NC(=O)/C=C\n2cnc(-c3cc(C(F)(F)F)cc(C(F)(F)F)c3)n2)C1
Completion: < 1000 nM

Prompt: Entry under review: COC1=CC(=O)N(NC(=O)/C=C\n2cnc(-c3cc(C(F)(F)F)cc(C(F)(F)F)c3)n2)CC1 . Reported IC50?
Completion: < 1000 nM

Prompt: So what does the record say about IC50 for O=C(/C=C\n1cnc(-c2cc(C(F)(F)F)cc(C(F)(F)F)c2)n1)NN1CCCCCC1=O ?
Completion: < 1000 nM

Prompt: Entry O=C(/C=C\n1cnc(-c2cc(C(F)(F)F)cc(C(F)(F)F)c2)n1)N1CCC(=O)N1CC1CC1 has what IC50?
Completion: < 1000 nM

Prompt: State the recorded IC50 for this entry: O=C(/C=C\n1cnc(-c2cc(C(F)(F)F)cc(C(F)(F)F)c2)n1)NN1C(=O)[C@H]2C=C[C@@H]1C2
Completion: < 1000 nM

Prompt: Which value of IC50 has been reported for O=C(/C=C\n1cnc(-c2cc(C(F)(F)F)cc(C(F)(F)F)c2)n1)NN1C(=O)[C@H]2CC[C@@H]1C2 in the records?
Completion: < 1000 nM
